tested on: dsDNA; assay: Binding affinity to dsDNA (unknown origin) assessed as adduct formation by measuring free dsDNA incubated for 48 hrs by ESI-MS analysis; type: nucleic-acid assay; design: concentration or dose not given beside the values
# maps each entry to its Activity
Note: unit % is implicit; provide only the numeric part.

See these solved cases before continuing.
N[C@@H](Cc1ccc(N(CCCl)CCCl)cc1)C(=O)OCCC(F)(F)C(F)(F)F    37
N[C@@H](Cc1ccc(N(CCCl)CCCl)cc1)C(=O)OCCC(F)(F)C(F)(F)C(F)(F)C(F)(F)C(F)(F)C(F)(F)C(F)(F)C(F)(F)F    98
N[C@@H](Cc1ccc(N(CCCl)CCCl)cc1)C(=O)OCCC(F)(F)C(F)(F)C(F)(F)C(F)(F)C(F)(F)C(F)(F)F    92
N[C@@H](Cc1ccc(N(CCCl)CCCl)cc1)C(=O)O    99

Per the record, Cl.N[C@@H](Cc1ccc(N(CCCl)CCCl)cc1)C(=O)OCCC(F)(F)F has Activity of 26

Reported Activity for N[C@@H](Cc1ccc(N(CCCl)CCCl)cc1)C(=O)OCCC(F)(F)C(F)(F)C(F)(F)C(F)(F)F was 51
